In this section we review reported IC50 values for a set of compounds.
ASSAY TARGET: Signal transducer and activator of transcription 3 (Homo sapiens)
Sequence (P40763 whole entry): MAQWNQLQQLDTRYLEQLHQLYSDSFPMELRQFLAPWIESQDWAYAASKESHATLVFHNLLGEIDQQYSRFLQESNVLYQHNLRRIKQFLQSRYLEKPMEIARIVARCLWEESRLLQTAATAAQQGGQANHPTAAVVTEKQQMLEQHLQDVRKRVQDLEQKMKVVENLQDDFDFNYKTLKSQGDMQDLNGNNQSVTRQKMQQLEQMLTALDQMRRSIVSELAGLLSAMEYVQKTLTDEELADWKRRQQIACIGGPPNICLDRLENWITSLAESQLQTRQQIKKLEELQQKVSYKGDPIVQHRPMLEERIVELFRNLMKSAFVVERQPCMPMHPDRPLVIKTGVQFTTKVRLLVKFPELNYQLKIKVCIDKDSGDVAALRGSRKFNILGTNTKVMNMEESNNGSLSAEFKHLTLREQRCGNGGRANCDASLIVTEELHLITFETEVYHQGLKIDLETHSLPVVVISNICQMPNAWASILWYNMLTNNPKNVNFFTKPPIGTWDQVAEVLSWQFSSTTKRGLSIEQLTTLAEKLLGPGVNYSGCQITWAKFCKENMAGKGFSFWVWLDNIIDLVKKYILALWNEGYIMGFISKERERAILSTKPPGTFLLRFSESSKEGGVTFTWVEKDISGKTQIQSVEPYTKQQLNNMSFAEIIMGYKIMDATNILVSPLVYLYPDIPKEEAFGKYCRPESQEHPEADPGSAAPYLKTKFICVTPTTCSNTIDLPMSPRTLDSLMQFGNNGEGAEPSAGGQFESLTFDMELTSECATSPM
PROTOCOL TEXT: Inhibition of IFNgamma-induced STAT3 activation in human HeLa cells expressing p4xM67-tk-Luc treated 30 mins before […] challenge measured after 6 hrs
A complete answer gives the number followed by the unit.

CC(C)=CCC[C@](C)(O)[C@@H]1CC=C(C)CC1 (relative stereo)	73 µM
CC(C)=CCC[C@](C)(O[C@@H]1O[C@H](C)[C@H](O)[C@H](O)[C@H]1O)[C@@H]1CC=C(C)CC1 (relative stereo)	6.3 µM

Looking up CC(C)=CCC[C@](C)(O[C@@H]1O[C@H](C)[C@H](O)[C@H](OC(=O)C=C(C)C)[C@H]1O)[C@@H]1CC=C(C)CC1 (relative stereo) , I found its IC50 recorded as 110 µM
